experimentalSystem: Transient receptor potential cation channel subfamily A member 1 (Homo sapiens)
Sequence (O75762 whole entry): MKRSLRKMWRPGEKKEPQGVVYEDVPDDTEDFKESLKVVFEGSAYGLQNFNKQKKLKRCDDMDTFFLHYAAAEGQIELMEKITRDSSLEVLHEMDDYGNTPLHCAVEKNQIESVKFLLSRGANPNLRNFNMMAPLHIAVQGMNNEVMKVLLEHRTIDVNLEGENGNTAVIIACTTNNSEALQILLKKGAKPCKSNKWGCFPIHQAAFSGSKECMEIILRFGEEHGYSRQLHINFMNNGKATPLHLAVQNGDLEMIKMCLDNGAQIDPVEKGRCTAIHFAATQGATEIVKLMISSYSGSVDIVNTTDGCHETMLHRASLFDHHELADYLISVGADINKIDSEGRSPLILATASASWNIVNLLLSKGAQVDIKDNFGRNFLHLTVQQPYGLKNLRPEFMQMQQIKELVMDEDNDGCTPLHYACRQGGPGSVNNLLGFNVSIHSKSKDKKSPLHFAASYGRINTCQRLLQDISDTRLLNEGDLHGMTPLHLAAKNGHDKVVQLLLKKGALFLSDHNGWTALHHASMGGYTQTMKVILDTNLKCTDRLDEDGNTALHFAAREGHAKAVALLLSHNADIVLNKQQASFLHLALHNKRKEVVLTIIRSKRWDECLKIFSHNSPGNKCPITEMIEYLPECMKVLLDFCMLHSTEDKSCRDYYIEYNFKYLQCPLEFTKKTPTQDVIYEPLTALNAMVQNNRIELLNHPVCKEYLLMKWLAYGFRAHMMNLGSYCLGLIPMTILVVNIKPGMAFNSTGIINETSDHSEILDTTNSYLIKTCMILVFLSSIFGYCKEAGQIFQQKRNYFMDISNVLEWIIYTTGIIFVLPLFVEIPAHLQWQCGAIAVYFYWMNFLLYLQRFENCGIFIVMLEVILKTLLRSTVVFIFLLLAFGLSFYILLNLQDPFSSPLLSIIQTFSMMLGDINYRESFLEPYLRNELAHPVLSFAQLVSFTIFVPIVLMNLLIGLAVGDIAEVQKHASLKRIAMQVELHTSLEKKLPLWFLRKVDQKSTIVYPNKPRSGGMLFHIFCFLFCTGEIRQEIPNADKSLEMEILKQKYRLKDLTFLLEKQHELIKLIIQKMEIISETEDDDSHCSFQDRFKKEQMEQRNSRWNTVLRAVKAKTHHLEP
procedureDetails: Antagonist activity against human TRPA1 expressed in T-REx HEK cells assessed as inhibition of AITC-induced increase in intracellular Ca2+ accumulation pre-incubated for 3 mins prior to AITC stimulation by Fluo-4 AM dye based fluorescence assay
Format: cell-based
readout: IC50

molecule=CC[C@H]1C[C@@H]2C[C@@]3(C(=O)OC)c4[nH]c5ccc(OC)cc5c4CCN(C2=O)[C@@H]13 result="Not Active"
molecule=CC[C@H]1C[C@@H]2CN3CCc4c([nH]c5ccc(OC)cc45)[C@](C(=O)OC)(C2)[C@H]13 result="Not Active"
molecule=CC[C@H]1C[C@H]2CN3CC[C@@]4(O)C(=Nc5ccc(OC)cc54)[C@](C(=O)OC)(C2)[C@H]13 result="Not Active"
molecule=CC[C@H]1C[C@H]2CN3CCc4c([nH]c5ccc(OC)cc45)[C@](CO)(C2)[C@H]13 result="Not Active"
molecule=COC(=O)[C@@]12C[C@@H]3C[C@H]([C@H](C)O)[C@@H]1N(CCc1c2[nH]c2ccc(OC)cc12)C3 result="Not Active"
molecule=CC[C@H]1C[C@@H]2CN3CCc4c([nH]c5ccccc45)[C@@](C(=O)OC)(C2)[C@@H]13 result="Not Active"
molecule=COC(=O)C1=C2Nc3ccccc3[C@@]23CCN2[C@@H]4O[C@@]56[C@@H]7C[C@@]4(CN5c4c(OC)cccc4[C@@]64CCN5CC[C@@H]6OCC[C@]6(C7)[C@H]54)[C@@H]4OCC[C@]4(C1)[C@H]23 result="Not Active"
molecule=CC[C@H]1C[C@H]2CN3Cn4c(c(COC)c5ccc(OC)cc54)[C@](C(=O)OC)(C2)[C@H]13 result="Not Active"
molecule="Oc1cc2c(cc1O)CN(C(=S)NCCc1ccc(Cl)cc1)CCC2 [CAPSAZEPINE]" result="Not Active"
molecule=CC[C@H]1C[C@@H]2CN3CCc4c([nH]c5ccccc45)[C@](C(=O)OC)(C2)[C@H]13 result="Not Active"
molecule=CC(C)(C)c1ccc(NC(=O)N2CCN(c3ncccc3Cl)CC2)cc1 result="Not Active"
molecule=CCC1=C[C@@H]2CN3CCc4c([nH]c5ccccc45)[C@@](C(=O)OC)(C2)[C@@H]13 result="Not Active"

====

experimentalSystem: Transient receptor potential cation channel subfamily M member 8 (Mus musculus, UniProt Q8R4D5)
Sequence (Q8R4D5 whole entry): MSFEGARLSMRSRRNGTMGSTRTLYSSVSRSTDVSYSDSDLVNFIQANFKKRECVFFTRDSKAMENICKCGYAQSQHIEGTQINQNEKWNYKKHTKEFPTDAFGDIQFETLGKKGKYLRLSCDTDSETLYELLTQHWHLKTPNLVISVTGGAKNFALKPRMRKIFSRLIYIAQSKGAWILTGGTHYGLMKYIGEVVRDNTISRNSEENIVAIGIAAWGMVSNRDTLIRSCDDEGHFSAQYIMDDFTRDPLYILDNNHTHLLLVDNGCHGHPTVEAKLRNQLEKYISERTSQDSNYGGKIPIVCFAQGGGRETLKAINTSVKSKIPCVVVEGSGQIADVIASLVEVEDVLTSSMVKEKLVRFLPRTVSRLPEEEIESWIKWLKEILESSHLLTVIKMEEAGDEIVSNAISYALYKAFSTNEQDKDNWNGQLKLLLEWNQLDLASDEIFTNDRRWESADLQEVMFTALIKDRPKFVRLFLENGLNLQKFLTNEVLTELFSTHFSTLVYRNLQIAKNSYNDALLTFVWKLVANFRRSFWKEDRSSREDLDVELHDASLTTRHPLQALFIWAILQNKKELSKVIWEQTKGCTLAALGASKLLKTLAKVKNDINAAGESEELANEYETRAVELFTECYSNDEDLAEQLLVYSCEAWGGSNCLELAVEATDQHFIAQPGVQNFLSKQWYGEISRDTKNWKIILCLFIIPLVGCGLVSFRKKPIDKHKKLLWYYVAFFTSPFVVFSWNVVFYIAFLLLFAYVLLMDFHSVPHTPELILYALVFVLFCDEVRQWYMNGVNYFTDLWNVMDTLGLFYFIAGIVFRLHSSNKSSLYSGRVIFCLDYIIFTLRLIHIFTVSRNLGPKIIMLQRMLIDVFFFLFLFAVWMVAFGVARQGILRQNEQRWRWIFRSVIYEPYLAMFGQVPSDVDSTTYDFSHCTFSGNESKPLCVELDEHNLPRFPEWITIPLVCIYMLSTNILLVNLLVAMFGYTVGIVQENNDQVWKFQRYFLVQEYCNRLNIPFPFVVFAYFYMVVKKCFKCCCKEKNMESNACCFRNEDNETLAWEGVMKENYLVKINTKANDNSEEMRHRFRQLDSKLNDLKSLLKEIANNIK
procedureDetails: Antagonist activity against mouse TRPM8 expressed in T-REx HEK cells assessed as inhibition of menthol-induced increase in intracellular Ca2+ accumulation pre-incubated for 3 mins prior to menthol stimulation by Fluo-4 AM dye based fluorescence assay
Assay type: cell-based
reportedConditions: read-out: IC50
readout: IC50 (µM)

structuresmiles=CC[C@H]1C[C@H]2CN3CC[C@@]4(O)C(=Nc5ccc(OC)cc54)[C@](C(=O)OC)(C2)[C@H]13 unitabbreviation=µM valueprefix== numericvalue=110
structuresmiles=CC[C@H]1C[C@H]2CN3CCc4c([nH]c5ccc(OC)cc45)[C@](CO)(C2)[C@H]13 unitabbreviation=µM valueprefix== numericvalue=19
structuresmiles=COC(=O)C1=C2Nc3ccccc3[C@@]23CCN2[C@@H]4O[C@@]56[C@@H]7C[C@@]4(CN5c4c(OC)cccc4[C@@]64CCN5CC[C@@H]6OCC[C@]6(C7)[C@H]54)[C@@H]4OCC[C@]4(C1)[C@H]23 unitabbreviation=µM valueprefix=> numericvalue=100
structuresmiles=CC[C@H]1C[C@@H]2CN3CCc4c([nH]c5ccccc45)[C@](C(=O)OC)(C2)[C@H]13 unitabbreviation=µM valueprefix== numericvalue=3
structuresmiles=CCC1=C[C@@H]2CN3CCc4c([nH]c5ccccc45)[C@@](C(=O)OC)(C2)[C@@H]13 unitabbreviation=µM valueprefix== numericvalue=0.7
structuresmiles=CC[C@H]1C[C@@H]2C[C@@]3(C(=O)OC)c4[nH]c5ccc(OC)cc5c4CCN(C2=O)[C@@H]13 unitabbreviation=µM valueprefix=> numericvalue=100
structuresmiles=CC[C@H]1C[C@H]2CN3Cn4c(c(COC)c5ccc(OC)cc54)[C@](C(=O)OC)(C2)[C@H]13 unitabbreviation=µM valueprefix== numericvalue=39
structuresmiles=CC[C@H]1C[C@@H]2CN3CCc4c([nH]c5ccccc45)[C@@](C(=O)OC)(C2)[C@@H]13 unitabbreviation=µM valueprefix== numericvalue=0.6
